I'd be grateful if you could share measured Ki for these entries.
- MEASURED TARGET: D(1A) dopamine receptor (Homo sapiens, UniProt P21728)
- Sequence (P21728 whole entry): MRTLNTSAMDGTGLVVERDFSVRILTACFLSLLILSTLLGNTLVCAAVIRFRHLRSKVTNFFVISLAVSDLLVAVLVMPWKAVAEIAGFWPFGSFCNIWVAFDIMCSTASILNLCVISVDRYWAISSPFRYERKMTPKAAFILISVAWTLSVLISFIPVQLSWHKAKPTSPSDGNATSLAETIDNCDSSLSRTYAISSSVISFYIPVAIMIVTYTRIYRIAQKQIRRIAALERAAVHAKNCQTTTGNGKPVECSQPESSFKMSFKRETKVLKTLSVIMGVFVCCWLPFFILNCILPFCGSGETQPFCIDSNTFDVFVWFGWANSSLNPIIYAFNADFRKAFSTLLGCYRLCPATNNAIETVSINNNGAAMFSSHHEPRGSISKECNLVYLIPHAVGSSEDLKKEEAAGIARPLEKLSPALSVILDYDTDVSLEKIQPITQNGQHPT
- PROCEDURE SUMMARY: Displacement of [3H]SCH 23390 from human dopamine D1 receptor

Examples with their reported Ki follow.
Exam item: Any idea what its Ki is? The compound is COc1ccc(CCN2CCCc3ccccc3C2)cc1Cl
Marked response: > 10 µM

Exam item: Recorded Ki of COc1ccc2c(c1)CCCN1CCCc3ccccc3C21 (stereo not drawn) , please.
Marked response: > 10 µM

New cases:
Exam item: I have this compound here, COc1cc2c(cc1Cl)CCN1CCCc3ccccc3C21 (stereo not drawn) , and I need its recorded Ki.
Marked response: > 10 µM
